measured_target: Muscarinic acetylcholine receptor M1 (Rattus norvegicus)
Sequence (whole entry): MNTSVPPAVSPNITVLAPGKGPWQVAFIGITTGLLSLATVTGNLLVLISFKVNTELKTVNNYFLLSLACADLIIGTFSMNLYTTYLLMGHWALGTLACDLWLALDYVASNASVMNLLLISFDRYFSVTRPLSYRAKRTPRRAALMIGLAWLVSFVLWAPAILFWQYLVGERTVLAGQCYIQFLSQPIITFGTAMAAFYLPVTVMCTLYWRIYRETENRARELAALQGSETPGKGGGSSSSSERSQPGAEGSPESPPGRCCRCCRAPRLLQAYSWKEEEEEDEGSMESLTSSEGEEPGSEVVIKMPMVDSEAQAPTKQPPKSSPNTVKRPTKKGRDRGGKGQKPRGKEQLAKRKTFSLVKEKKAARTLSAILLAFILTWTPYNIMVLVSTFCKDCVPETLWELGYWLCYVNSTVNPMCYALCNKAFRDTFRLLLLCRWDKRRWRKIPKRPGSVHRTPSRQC
measurement_description: Agonist activity at rat M1 receptor expressed in CHO cells assessed as increase in calcium mobilization measured after 2.5 mins by Fluo-4-AM dye based assay
Type: functional, cell-based
experimental_endpoint: %max (%)

Answered examples (3):
- mol_smiles: "Cn1ccc(-c2ccc(Cc3cc(C(=O)NC4CCOCC4)nc4c3ccn4C)cn2)n1"
  measured_target: "Muscarinic acetylcholine receptor M1 (Rattus norvegicus)"
  units: "%"
  %max: 34
- mol_smiles: "Cn1cc(-c2ccc(Cc3cc(C(=O)N[C@@H]4CCCC[C@H]4O)nc4c3ccn4C)cn2)cn1"
  measured_target: "Muscarinic acetylcholine receptor M1 (Rattus norvegicus)"
  units: "%"
  %max: 58
- mol_smiles: "Cn1ccc2c(Cc3ccc(-n4cccn4)cc3)cc(C(=O)NC3CCOCC3)nc21"
  measured_target: "Muscarinic acetylcholine receptor M1 (Rattus norvegicus)"
  units: "%"
  %max: 26

1: Cn1ccc(-c2ccc(Cc3cc(C(=O)N[C@@H]4CCOC[C@H]4O)nc4c3ccn4C)cc2)n1
2: Cn1ccc(-c2ccc(Cc3cc(C(=O)N[C@@H]4CCCC[C@H]4O)nc4c3ccn4C)cc2)n1
Select the item whose %max value is smaller, choosing between 1 and 2 . Reply briefly: the label of your chosen item.
2
(2: 41%, 1: 65%)

---

measured_target: Muscarinic acetylcholine receptor M1 (Rattus norvegicus)
Sequence (P08482 whole entry): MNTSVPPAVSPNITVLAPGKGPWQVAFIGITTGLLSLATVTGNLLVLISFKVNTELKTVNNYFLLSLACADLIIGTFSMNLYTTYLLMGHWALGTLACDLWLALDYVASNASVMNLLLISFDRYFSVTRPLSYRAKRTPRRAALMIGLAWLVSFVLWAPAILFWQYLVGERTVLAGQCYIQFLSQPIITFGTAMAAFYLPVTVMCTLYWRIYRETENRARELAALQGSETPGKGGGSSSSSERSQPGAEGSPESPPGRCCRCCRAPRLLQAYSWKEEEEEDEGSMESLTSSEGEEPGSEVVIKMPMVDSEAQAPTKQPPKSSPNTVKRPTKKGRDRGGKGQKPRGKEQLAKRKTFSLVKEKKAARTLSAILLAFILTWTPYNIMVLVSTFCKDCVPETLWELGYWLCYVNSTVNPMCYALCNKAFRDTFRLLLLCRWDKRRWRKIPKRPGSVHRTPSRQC
measurement_description: Agonist activity at rat M1 receptor expressed in CHO cells assessed as increase in calcium mobilization measured after 2.5 mins by Fluo-4-AM dye based assay
Type: functional, cell-based
test_settings: read-out: pEC50 (converted)
experimental_endpoint: EC50

- mol_smiles: "Cn1ccc(-c2ccc(Cc3cc(C(=O)NC[C@@H]4CCCO4)nc4c3ccn4C)cn2)n1"
  measured_target: "Muscarinic acetylcholine receptor M1 (Rattus norvegicus)"
  EC50: "> 10 µM"
- mol_smiles: "Cn1ccc(-c2ccc(Cc3cc(C(=O)NC4CC5(COC5)C4)nc4c3ccn4C)cn2)n1"
  measured_target: "Muscarinic acetylcholine receptor M1 (Rattus norvegicus)"
  EC50: "> 31.6 µM"

# context switch: different molecule, same EC50
Quick note, EC50 for `Cc1nc(-c2ccc(Cc3cc(C(=O)NC4CCOCC4)nc4c3ccn4C)cc2)co1` landed at > 10 µM

---

measured_target: UniProt:P08172
Sequence (P08172 whole entry): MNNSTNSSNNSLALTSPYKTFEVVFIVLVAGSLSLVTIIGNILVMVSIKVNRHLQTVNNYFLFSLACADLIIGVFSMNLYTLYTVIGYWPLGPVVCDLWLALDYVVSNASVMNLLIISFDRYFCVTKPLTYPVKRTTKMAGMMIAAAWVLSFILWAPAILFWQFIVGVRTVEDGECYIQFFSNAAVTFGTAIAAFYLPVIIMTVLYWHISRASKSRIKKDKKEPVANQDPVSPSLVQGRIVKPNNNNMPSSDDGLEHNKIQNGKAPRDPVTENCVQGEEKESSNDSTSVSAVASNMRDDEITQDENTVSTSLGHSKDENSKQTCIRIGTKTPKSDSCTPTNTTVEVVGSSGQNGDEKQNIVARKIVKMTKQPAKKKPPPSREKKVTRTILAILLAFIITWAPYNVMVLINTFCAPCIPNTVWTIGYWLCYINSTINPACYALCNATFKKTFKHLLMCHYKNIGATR
measurement_description: Positive allosteric modulation of human M2 receptor expressed in CHO cells co-expressing Gqi5 assessed as increase in acetylcholine-induced calcium mobilization pretreated for 2.5 mins followed by acetylcholine addition and measured after 1 min by Fluo-4-AM dye based assay
experimental_endpoint: EC50

Quick note, EC50 for `Cn1cc(-c2ccc(Cc3cc(C(=O)NC4CCOCC4)nc4c3ccn4C)cn2)cn1` landed at > 30 µM

---

measured_target: Muscarinic acetylcholine receptor M1 (Homo sapiens, UniProt P11229)
Sequence (P11229 whole entry): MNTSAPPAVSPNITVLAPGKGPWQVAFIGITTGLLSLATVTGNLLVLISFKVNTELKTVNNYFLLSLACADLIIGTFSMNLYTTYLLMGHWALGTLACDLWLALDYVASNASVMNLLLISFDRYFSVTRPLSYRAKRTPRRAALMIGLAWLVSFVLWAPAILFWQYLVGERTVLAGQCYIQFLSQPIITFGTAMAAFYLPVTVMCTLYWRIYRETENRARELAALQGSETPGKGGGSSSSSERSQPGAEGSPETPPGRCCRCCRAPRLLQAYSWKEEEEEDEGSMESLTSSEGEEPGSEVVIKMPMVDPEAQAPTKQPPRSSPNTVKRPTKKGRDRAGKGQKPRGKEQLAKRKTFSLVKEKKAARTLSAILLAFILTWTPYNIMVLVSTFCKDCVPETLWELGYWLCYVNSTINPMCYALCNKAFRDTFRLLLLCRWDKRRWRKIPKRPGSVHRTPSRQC
measurement_description: Agonist activity at human M1 receptor expressed in CHO cells assessed as increase in calcium mobilization measured after 2.5 mins by Fluo-4-AM dye based assay
Format: functional, cell-based
pEC50: −log10 of the molar value.
experimental_endpoint: pEC50

Answered examples (4):
- mol_smiles: "Cn1ccc(-c2ccc(Cc3cc(C(=O)N[C@@H]4CCCC[C@H]4O)nc4c3ccn4C)cc2)n1"
  measured_target: "Muscarinic acetylcholine receptor M1 (Homo sapiens, UniProt P11229)"
  experimental_endpoint: "pEC50"
  result: 6.74
- mol_smiles: "Cn1cc(-c2ccc(Cc3cc(C(=O)NC4CCOCC4)nc4c3ccn4C)cn2)cn1"
  measured_target: "Muscarinic acetylcholine receptor M1 (Homo sapiens, UniProt P11229)"
  experimental_endpoint: "pEC50"
  result: 6.49
- mol_smiles: "Cn1ccc(-c2ccc(Cc3cc(C(=O)N[C@@H]4CCOC[C@H]4O)nc4c3ccn4C)cc2)n1"
  measured_target: "Muscarinic acetylcholine receptor M1 (Homo sapiens, UniProt P11229)"
  experimental_endpoint: "pEC50"
  result: 7.22
- mol_smiles: "Cn1ccc(-c2ccc(Cc3cc(C(=O)N[C@@H]4CCCC[C@H]4O)nc4c3ccn4C)cn2)n1"
  measured_target: "Muscarinic acetylcholine receptor M1 (Homo sapiens, UniProt P11229)"
  experimental_endpoint: "pEC50"
  result: 6.91

1: Cn1ccc2c(Cc3ccc(-c4nccs4)cc3)cc(C(=O)N[C@@H]3CCOC[C@H]3O)nc21
2: Cn1ccc(-c2ccc(Cc3cc(C(=O)NC4CCOCC4)nc4c3ccn4C)cc2)n1
Which numeric pEC50 is bigger, that of 1 or that of 2 ? Reply briefly: the label of your chosen item.
1

---

measurement_description: Protein binding in rat plasma assessed as unbound fraction at 5 uL measured after 4 hrs by LC-MS/MS based equilibrium dialysis method
Assay type: ADME, cell-free
experimental_endpoint: fraction unbound at 4 h, 5 uL

Answered examples (3):
- mol_smiles: "Cn1ccc(-c2ccc(Cc3cc(C(=O)N[C@@H]4CCCC[C@H]4O)nc4c3ccn4C)cn2)n1"
  result: 0.03
- mol_smiles: "Cn1cc(-c2ccc(Cc3cc(C(=O)N[C@@H]4CCCC[C@H]4O)nc4c3ccn4C)cn2)cn1"
  result: 0.06
- mol_smiles: "Cn1ccc(-c2ccc(Cc3cc(C(=O)N[C@@H]4CCOC[C@H]4O)nc4c3ccn4C)cc2)n1"
  result: 0.03

1: Cn1ccc(-c2ccc(Cc3cc(C(=O)NC4CCOCC4)nc4c3ccn4C)cc2)n1
2: Cn1cc(-c2ccc(Cc3cc(C(=O)NC4CCOCC4)nc4c3ccn4C)cn2)cn1
3: Cn1ccc2c(Cc3ccc(-c4nccs4)cc3)cc(C(=O)N[C@@H]3CCOC[C@H]3O)nc21
Give the ascending ranking of the items by reported fraction unbound at 4 h, 5 uL. Please write the labels in the order that was asked for.
3, 1, 2
(3: 0.02, 1: 0.04, 2: 0.06)

Where these numbers come from: ChEMBL document CHEMBL4229572
